# STUDY TARGET: PDGFRB (Homo sapiens)
# Construct: Kinases are expressed as either kinase domains or full length constructs; made in house
# Sequence (P09619 33-1106, species assumed): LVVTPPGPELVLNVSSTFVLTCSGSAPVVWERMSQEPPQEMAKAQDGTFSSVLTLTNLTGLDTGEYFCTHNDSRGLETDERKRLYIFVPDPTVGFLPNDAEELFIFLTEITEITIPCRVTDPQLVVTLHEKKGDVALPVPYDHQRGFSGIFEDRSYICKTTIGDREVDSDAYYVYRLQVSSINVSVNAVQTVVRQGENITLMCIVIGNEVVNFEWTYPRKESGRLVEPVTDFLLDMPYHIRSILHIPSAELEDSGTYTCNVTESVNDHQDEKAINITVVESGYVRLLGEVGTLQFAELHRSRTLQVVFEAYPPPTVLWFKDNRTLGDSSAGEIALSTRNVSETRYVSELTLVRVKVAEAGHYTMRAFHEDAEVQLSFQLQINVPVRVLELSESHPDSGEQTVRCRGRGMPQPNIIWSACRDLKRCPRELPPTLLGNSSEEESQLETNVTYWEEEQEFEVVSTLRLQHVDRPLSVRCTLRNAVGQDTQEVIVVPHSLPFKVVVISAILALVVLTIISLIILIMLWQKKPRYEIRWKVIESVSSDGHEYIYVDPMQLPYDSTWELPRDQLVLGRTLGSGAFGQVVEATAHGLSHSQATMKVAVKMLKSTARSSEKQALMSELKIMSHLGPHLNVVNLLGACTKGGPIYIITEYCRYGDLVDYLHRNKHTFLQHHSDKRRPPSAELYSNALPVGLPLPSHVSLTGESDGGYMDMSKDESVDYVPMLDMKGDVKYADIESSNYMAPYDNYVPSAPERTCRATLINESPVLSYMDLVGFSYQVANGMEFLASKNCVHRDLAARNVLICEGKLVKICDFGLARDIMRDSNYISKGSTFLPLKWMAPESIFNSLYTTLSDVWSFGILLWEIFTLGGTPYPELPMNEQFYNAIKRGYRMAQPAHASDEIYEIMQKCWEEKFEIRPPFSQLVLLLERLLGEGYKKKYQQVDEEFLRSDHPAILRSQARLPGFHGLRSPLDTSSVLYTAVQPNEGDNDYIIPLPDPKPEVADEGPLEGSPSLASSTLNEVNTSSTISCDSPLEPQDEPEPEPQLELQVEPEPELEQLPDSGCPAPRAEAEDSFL
# METHOD NOTES: Kinase inhibition assay (33P transfer), PDGFRB
# Type: biochemical
# PARTICULARS: read-out: PDGFRB-1
REPORTED ENDPOINT: IC50

Consider the reported IC50 for these molecules:
>>> endpoint_result("Cc1cccc(Nc2ncnc(Nc3cc(-c4ccccc4)n[nH]3)n2)c1")
"1.16 to 6.99 µM"
>>> endpoint_result("COc1cc(Nc2ncnc(-c3cccnc3NCc3cccc4ccccc34)n2)cc(OC)c1OC")
"0.809 to 4.85 µM"
>>> endpoint_result("Fc1ccc(CNc2ncccc2-c2ncnc(Nc3cccc(Cn4ccnn4)c3)n2)cc1")
"< 0.882 µM"

# input Read off the recorded IC50 for NC(=O)Cc1cccc(Nc2ncnc(Nc3cc(-c4ccccc4)n[nH]3)n2)c1
# output 1.04 to 6.21 µM
